B1: r4_43_TrROS_Hall (parent)
chain: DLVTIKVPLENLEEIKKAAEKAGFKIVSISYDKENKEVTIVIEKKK

# Variants of: B1
# ASSAY_PROTOCOL: folding stability dG (cDNA display proteolysis); higher = more stable
# TEST_PARAMETERS: PBS, room temperature
MEASURED_METRIC: folding stability dG (kcal/mol)
Answer format: numeric, kcal/mol implied, no suffix.

Data point: DLVTIKVPLENDEEIKKAAEKAGFKIVSISYDKENKEVTIVIEKKK ; folding stability dG = 2.46

Quick note, folding stability dG for DLVTIKVPLENLEEIKKANEKAGFKIVSISYDKENKEVTIVIEKKK landed at 3.55
